Parameter: pKi. Scope: all listed entries.
target-or-system: PIM1 (Homo sapiens (Human), UniProt P11309)
Sequence (P11309 whole entry): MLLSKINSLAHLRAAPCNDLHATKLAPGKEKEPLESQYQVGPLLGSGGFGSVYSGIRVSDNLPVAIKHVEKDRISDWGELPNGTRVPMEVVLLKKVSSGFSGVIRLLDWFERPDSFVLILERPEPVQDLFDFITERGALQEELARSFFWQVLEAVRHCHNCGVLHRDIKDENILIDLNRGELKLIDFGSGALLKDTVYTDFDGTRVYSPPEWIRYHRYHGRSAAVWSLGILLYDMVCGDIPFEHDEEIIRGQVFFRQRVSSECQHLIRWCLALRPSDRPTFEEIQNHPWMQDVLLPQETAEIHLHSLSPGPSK
procedure-text: biochemical
Type: biochemical
condition-label: 20 pM PIM1, 1 μM FAM-peptide, 10 μM ATP, 90 minutes at room temperature; read-out: PIM1 LC3K (KI)
Schema: pKi number; meaning minus log10 of the concentration expressed in molar units.

> print(dat)
                                   compound  readout.type  measurement
1  Cn1ncc(NC(=O)c2csc(-c3ccccc3F)n2)c1[C@@H]1CC[C@@H](N)[C@H](F)CO1 [Example 322]           pKi        10.14
2  Cn1ncc(NC(=O)c2csc(-c3c(F)cc(F)cc3F)n2)c1[C@@H]1CC[C@@H](N)[C@H](F)CO1 [Example 364]           pKi        10.41
3  CC[C@]1(CO)CO[C@@H](c2c(NC(=O)c3nc(-c4c(F)cccc4F)sc3N)cnn2C)OC1 [Example 163]           pKi         8.90

What value of pKi has been recorded for this entry: COc1ncccc1-c1nc(C(=O)Nc2cnn(C)c2[C@@H]2CC[C@@H](N)[C@H](F)CO2)cs1 [Example 232]
8.95

Try the compound Cn1ncc(NC(=O)c2nc(-c3c(F)cccc3F)sc2N)c1C1CCC(N)COC1 (stereo not shown) [Example 144]
8.84

Also need Cn1ncc(NC(=O)c2csc(-c3ccccn3)n2)c1[C@@H]1CC[C@@H](N)[C@H](F)CO1 [Example 326] , thanks.
10.51

Repeat with C[C@@H]1C[C@@H](N)CC[C@H](c2c(NC(=O)c3nc(-c4c(F)cccc4F)sc3N)cnn2C)O1 [Example 121]
11.52

###

Catalogue of compounds with associated Ki
target-or-system: PIM1 (Homo sapiens (Human), UniProt P11309)
procedure-text: biochemical
Format: biochemical
condition-label: 20 pM PIM1, 1 μM FAM-peptide, 10 μM ATP, 90 minutes at room temperature; read-out: PIM1 LC3K (KI)
# number only, unit nM dropped from output

> print(dat)
                                   compound                          target.or.system  unit.info  measurement
1  Cn1ncc(NC(=O)c2csc(-c3c(F)cccc3F)n2)c1[C@@H]1CC[C@@H](N)[C@H](F)CO1  PIM1 (Homo sapiens (Human), UniProt P11309)         nM       0.0137
2  Cn1ncc(NC(=O)c2csc(-c3ccccc3C(F)(F)F)n2)c1[C@@H]1CC[C@@H](N)[C@H](F)CO1  PIM1 (Homo sapiens (Human), UniProt P11309)         nM         1.65

Test system PIM1 (Homo sapiens (Human), UniProt P11309); read-out Ki; what value for Cn1ncc(NC(=O)c2csc(-n3cc4c(n3)CCCC4)n2)c1[C@@H]1CC[C@@H](N)[C@H](F)CO1 ?
0.267

Another compound: C[C@H]1O[C@@H](c2c(NC(=O)c3nc(-c4c(F)cccc4F)sc3N)cnn2C)CC(F)(F)[C@@]1(C)N (stereo in doubt) [Example 179]
0.456

Next entry: Cn1ncc(NC(=O)c2nc(-c3ccncc3F)sc2N)c1[C@@]12CC[C@@H](N)[C@@H](CC1)O2 (stereo in doubt)
0.013

Try Cn1ncc(NC(=O)c2csc(-c3c(F)cccc3F)n2)c1[C@H]1CC[C@H](N)[C@@H](O)CO1 next.
0.111

Next up: Cn1ncc(NC(=O)c2csc(-c3c(F)cc(O[C@H]4CCOC4)cc3F)n2)c1[C@@H]1CC[C@@H](N)[C@H](F)CO1
0.00224

Quick one: COC1(c2c(NC(=O)c3nc(-c4c(F)cccc4F)sc3N)cnn2C)CCCCO1 (stereo not drawn)
0.209

Same question, COc1cc(F)c(-c2nc(C(=O)Nc3cnn(C)c3[C@@H]3CC[C@@H](N)[C@H](F)CO3)ccc2F)c(F)c1 this time
0.019

###

target-or-system: PIM1 (Homo sapiens (Human), UniProt P11309)
procedure-text: biochemical
Format: biochemical
condition-label: 20 pM PIM1, 1 μM FAM-peptide, 10 μM ATP, 90 minutes at room temperature; read-out: PIM1 LC3K (KI)
pKi: −log10 of the molar value.
Would you mind labelling by pKi? At or over 10 is label 1, under is label 0.

> print(dat)
                                   molecule  class.assignment
1  COc1cc(F)c(-c2nc(C(=O)Nc3cnn(C)c3[C@@H]3CC[C@@H](N)[C@@H](F)CO3)cs2)c(F)c1 [Example 288]           label 1
2  C[C@H]1O[C@@H](c2c(NC(=O)c3csc(-c4c(F)cccc4F)n3)cnn2C)C[C@@H](N)[C@]1(C)O (single isomer, unassigned) [Example 341]           label 1
3  Cn1ncc(NC(=O)c2nc(-c3c(F)cccc3F)sc2N)c1C1CCCCO1 (centres unmarked) [Example 104]           label 0

Determine whether measured pKi meets or exceeds 10 for Cn1ncc(NC(=O)c2ccc(F)c(-c3c(F)cc(Cl)cc3F)n2)c1[C@@H]1CC[C@@H](N)[C@H](F)CO1 [Example 375]
label 1

Another: Cn1ncc(NC(=O)c2nc(-c3c(F)cccc3F)sc2N)c1[C@H]1CCC(F)[C@@H](N)CO1 (stereo in doubt) [Example 145]
label 0

Do the same for Cn1ncc(NC(=O)c2ccc(F)c(-c3c(F)cc(C4(O)CCC4)cc3F)n2)c1[C@@H]1CC[C@@H](N)[C@H](F)CO1 [Example 198] please
label 1

Another molecule to check: Cc1ccc(F)c(-c2nc(C(=O)Nc3cnn(C)c3[C@@H]3CC[C@@H](N)[C@H](F)CO3)cs2)c1 [Example 238]
label 1

###

target-or-system: PIM1 (Homo sapiens (Human), UniProt P11309)
procedure-text: biochemical
Type: biochemical
condition-label: 20 pM PIM1, 1 μM FAM-peptide, 10 μM ATP, 90 minutes at room temperature; read-out: PIM1 LC3K (KI)
readout-type: Ki (pM)
Give just the number in pM; leave the unit off.

molecule	Ki [pM]
Cc1cc(F)c(-c2nc(C(=O)Nc3cnn(C)c3[C@@H]3CC[C@@H](N)[C@H](F)CO3)cs2)c(F)c1 [Example 312]	3
Cn1ncc(NC(=O)c2nc(-c3c(F)cccc3F)sc2N)c1[C@@H]1CC[C@@H](N)[C@H](F)CO1 [Example 177]	3.42
Cn1ncc(NC(=O)c2csc(-c3cc(Br)ccc3F)n2)c1[C@@H]1CC[C@@H](N)[C@H](F)CO1 [Example 299]	23
Cn1ncc(NC(=O)c2csc(-c3cccc(F)c3Cl)n2)c1[C@@H]1CC[C@@H](N)[C@H](F)CO1 [Example 309]	274
COc1ccc(F)c(F)c1-c1nc(C(=O)Nc2cnn(C)c2[C@@H]2CC[C@@H](N)[C@@H](F)CO2)c(N)s1 [Example 277]	143
Cn1ncc(NC(=O)c2nc(-c3c(F)cccc3F)sc2N)c1C1OCC(CO)CO1 (centres unmarked) [Example 165]	647
COc1ccc(F)c(-c2nc(C(=O)Nc3cnn(C)c3[C@@H]3CC[C@@H](N)[C@H](OC)CO3)cs2)c1F [Example 368]	30
C[C@@H]1CC(N)CC[C@H](c2c(NC(=O)c3nc(-c4c(F)cccc4F)sc3N)cnn2C)O1 (some centres unmarked) [Example 113]	19

Please state recorded Ki (tested on PIM1 (Homo sapiens (Human), UniProt P11309)) of CC(=O)Nc1ccc(-c2nc(C(=O)Nc3cnn(C)c3[C@@H]3CC[C@@H](N)[C@H](F)CO3)cs2)cn1 [Example 386]
389

And for COc1ccc(F)c(-c2nc(C(=O)Nc3cnn(C)c3[C@@H]3CC[C@@H](N)[C@H](F)CO3)cs2)c1 [Example 356] ?
53

###

target-or-system: PIM1 (Homo sapiens (Human), UniProt P11309)
procedure-text: biochemical
Type: biochemical
condition-label: 20 pM PIM1, 1 μM FAM-peptide, 10 μM ATP, 90 minutes at room temperature; read-out: PIM1 LC3K (KI)
pKi: −log10 of the molar value.
Decision: pKi >= 10 yields fulfilled, all other cases yield not fulfilled.

Worked set:
> print(dat)
                         compound.structure  class.assignment
1  CO[C@H]1C[C@H](c2c(NC(=O)c3nc(-c4c(F)cccc4F)sc3N)cnn2C)OCC[C@@H]1N     not fulfilled
2  Cn1cc(-c2nc(C(=O)Nc3cnn(C)c3[C@@H]3CC[C@@H](N)[C@@H](F)CO3)cs2)c(C(F)(F)F)n1     not fulfilled
3  Cn1ncc(NC(=O)c2nc(-c3ccccc3C(F)(F)F)sc2N)c1[C@@H]1CC[C@@H](N)[C@H](F)CO1     not fulfilled
4  CO[C@H]1CO[C@H](c2c(NC(=O)c3nc(-c4c(F)cccc4F)sc3N)cnn2C)CC[C@H]1N         fulfilled

Does the reported pKi for Cc1ccc(F)c(-c2nc(C(=O)Nc3cnn(C)c3[C@@H]3CC[C@@H](N)[C@H](F)CO3)c(N)s2)c1 fall at or above the 10 mark?
fulfilled

Also COc1ccc(-c2nc(C(=O)Nc3cnn(C)c3[C@@H]3CC[C@@H](N)[C@H](F)CO3)ccc2F)c(F)c1 , if possible.
fulfilled

Each recorded value in this set is attributed to patent US9328106B2.
